Kindly supply the reported Diet values for the records listed here.
- Test system: Rattus norvegicus
- measurement-notes: In vivo Sterol lowering activity at dose as 0.01 % of the diet
- Assay type: functional
One number for each entry, in %.

| compound | Diet (%) |
| --- | --- |
| CCCCCCCCCC/C=C/CCCNc1ccc(C(=O)[O-])cc1.[Na+] | 86 |
| CCCCCCCCCCCCCNc1ccc(C(=O)[O-])cc1.[Na+] | 110 |
| CCOC(=O)c1ccc(NC(=O)CCc2ccc(OC)cc2)cc1 | 80 |
| CCOC(=O)c1ccc(NCCCCCCCCCCCn2ccnc2)cc1 | 89 |
| CCCCCCCCCCCCCCCCNc1ccc(C(=O)[O-])cc1.[Na+] [CETABEN SODIUM] | 90 |
| CCCCCCCCc1ccc(CNc2ccc(C(=O)OCC)cc2)s1 | 97 |

# batch: return Diet for each of the 2 compounds below
1. CCCCCCCCCCCc1nc(CNc2ccc(C(=O)O)cc2)c[nH]1.Cl
2. O=C(O)c1ccc(NCCCc2ccccc2F)cc1

99
87
